Hello, the source for this data is patent US10434112B2, in case you need it.

Assay system: human FPR2 receptor (Homo sapiens (Human), UniProt P25090)
Sequence (P25090 whole entry): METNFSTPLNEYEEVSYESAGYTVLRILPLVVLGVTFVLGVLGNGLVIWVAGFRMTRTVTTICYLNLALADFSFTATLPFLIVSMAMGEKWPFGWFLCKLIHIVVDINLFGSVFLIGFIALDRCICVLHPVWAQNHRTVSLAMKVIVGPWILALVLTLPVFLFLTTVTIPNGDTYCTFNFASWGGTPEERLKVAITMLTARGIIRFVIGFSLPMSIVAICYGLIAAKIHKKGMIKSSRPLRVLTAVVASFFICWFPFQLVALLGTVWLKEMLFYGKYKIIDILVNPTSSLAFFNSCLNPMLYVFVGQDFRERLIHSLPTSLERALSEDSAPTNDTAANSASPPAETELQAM
Test: FLIPR Ca+2 response in HEK-Gα16 cells stably expressing the human FPR2 receptor
Format: cell-based
Set-up: unit not given here
Condition summary: Table 4; value in brackets, given mostly as fraction
Value kind: FPR2 (% eff)

>>> print(df.to_string())
                                   molecule  readout_number
0  CCOP(=O)(CNC(=O)[C@H](CC(C)C)NC(=O)Nc1ccc(SC)cc1)OCC            0.91
1  CCC[C@H](NC(=O)Nc1ccc(Br)cc1)C(=O)NCP(=O)(OC(C)C)OC(C)C             1.0
2  CC(C)C[C@H](NC(=O)Nc1ccc(Br)cc1)C(=O)NCC(N)=O             1.0
3  CC(=O)c1ccc(NC(=O)Nc2ccc3c(c2)C(=O)N(CCc2c[nH]cn2)C(c2ccc(C#N)cc2)C3)cc1 (centres unmarked)            0.80
4  CC(=O)CNC(=O)[C@H](CC(C)C)NC(=O)Nc1ccc(Br)cc1            0.82
5  CC(C)C[C@H](NC(=O)Nc1ccc(C(F)(F)F)cc1)C(=O)NCS(=O)(=O)O            0.99
6  CCOC(=O)CCC1(C(C)C)NC(=O)N(NC(=O)Nc2ccc(Br)cc2)C1=O (centres unmarked)            0.94
7  CC(C)C[C@H](NC(=O)Nc1ccc(Br)cc1F)C(=O)NCC(N)=O            0.95

###

# maps each entry to its FPR2 (% eff)
Assay system: human FPR2 receptor (Homo sapiens (Human))
Test: FLIPR Ca+2 response in HEK-Gα16 cells stably expressing the human FPR2 receptor
Format: cell-based
Set-up: unit not given here
Condition summary: Table 4; value in brackets, given mostly as fraction
Value kind: FPR2 (% eff)

>>> print(df.to_string())
                                    compound    value_kind  readout_number
 0  CCOP(=O)(O)CNC(=O)[C@H](CC(C)C)NC(=O)Nc1ccc(Br)cc1 [Compound 105]  FPR2 (% eff)            0.88
 1  CC(C)C1(CC(=O)NCCC(=O)O)NC(=O)N(NC(=O)Nc2ccc(Br)cc2)C1=O (centres unmarked) [Compound 147]  FPR2 (% eff)            0.99
 2  CC(C)C[C@H](NC(=O)Nc1ccc(Br)cc1)C(=O)NCS(=O)(=O)O [Compound 127]  FPR2 (% eff)            0.91
 3  CC(C)C[C@H](NC(=O)Nc1ccc(Br)cc1)C(=O)NCP(=O)(OC(C)C)OC(C)C [Compound 131]  FPR2 (% eff)             1.0
 4  CC(C)C[C@H](NC(=O)Nc1ccc(Br)cc1)C(=O)NCc1cc(O)no1 [Compound 116]  FPR2 (% eff)             1.0
 5  N#Cc1ccc(C2Cc3ccc(NC(=O)Nc4ccc(I)cc4)cc3C(=O)N2CCCN)cc1 (centres unmarked) [Compound 43]  FPR2 (% eff)            0.94
 6  CC(C)C1(CCc2ccccc2C(=O)O)NC(=O)N(NC(=O)Nc2ccc(Br)cc2)C1=O (centres unmarked) [Compound 151]  FPR2 (% eff)             1.0
 7  CSCC[C@H](NC(=O)Nc1ccc(Br)cc1)C(=O)NCC(=O)O [Compound 144]  FPR2 (% eff)            0.91
 8  CSc1ccc(NC(=O)N[C@@H](CC(C)C)C(=O)NCC(=O)O)cc1 [Compound 130]  FPR2 (% eff)             1.0
 9  O=C(O)CCNC(=O)[C@H](Cc1ccccc1)NC(=O)Nc1ccc(Br)cc1 [Compound 56]  FPR2 (% eff)            0.98
10  CC(C)C[C@H](NC(=O)Nc1ccc(C(F)(F)F)cc1)C(=O)NC(C)(C)C(=O)O [Compound 139]  FPR2 (% eff)            0.92
11  O=C(Nc1ccc(Br)cc1)NN1C(=O)NC(C2CC2)(C2CC2)C1=O [Compound 65]  FPR2 (% eff)             1.0
12  CCC1(CCc2ccccc2C(=O)OC)NC(=O)N(NC(=O)Nc2ccc(Br)cc2)C1=O (centres unmarked) [Compound 141]  FPR2 (% eff)            0.92
13  CC1(CCc2ccc(O)c(F)c2)NC(=O)N(NC(=O)Nc2ccc(Br)cc2F)C1=O (centres unmarked) [Compound 98]  FPR2 (% eff)            0.91
14  O=C(O)[C@@H]1C2CCC([C@@H]1C(=O)Nc1ccc(Br)cc1)C21CC1 (relative stereo) [Compound 14]  FPR2 (% eff)            0.90
15  CC(C)C[C@H](NC(=O)Nc1ccc(Br)cc1)C(=O)N[C@H](C(=O)O)C(C)C [Compound 91]  FPR2 (% eff)            0.97
16  CCC[C@H](NC(=O)Nc1ccc(Br)cc1)C(=O)NCC(=O)O [Compound 2]  FPR2 (% eff)            0.91

###

Assay system: FPRL-1 (Homo sapiens (Human), UniProt P25090)
Test: FPRL-1 Ga16-CHO EC50 (efficacy)
Assay type: cell-based
Condition summary: Table 1; value in brackets
Value kind: FPRL-1 Ga16-CHO (efficacy)

>>> print(df.to_string())
                                   compound                  value_kind  readout_number
0  O=C(Nc1ccc(C(F)(F)F)cc1)N[C@@H](Cc1ccccc1)C(=O)O  FPRL-1 Ga16-CHO (efficacy)            0.97
1  O=C(Nc1ccc(Cl)cc1)NC(Cc1ccccc1)C(=O)O (stereo not shown)  FPRL-1 Ga16-CHO (efficacy)             1.0
2     CC(C)[C@H](NC(=O)Nc1ccc(Br)cc1)C(=O)O  FPRL-1 Ga16-CHO (efficacy)            0.91
3  COc1ccc(NC(=O)N[C@@H](Cc2ccccc2)C(=O)O)cc1  FPRL-1 Ga16-CHO (efficacy)            0.90

###

Assay system: FPRL-1 (Homo sapiens (Human), UniProt P25090)
Test: FPRL-1 Ga16-CHO EC50 (efficacy)
Assay type: cell-based
Condition summary: Table 1; value in brackets
# maps each entry to its FPRL-1 Ga16-CHO (efficacy)
Value kind: FPRL-1 Ga16-CHO (efficacy)

>>> print(df.to_string())
                                   compound                              assay_system                  value_kind  readout_number
0  O=C(Nc1ccc(Br)cc1)NC(Cc1ccccc1)C(=O)O (stereo in doubt) [(2S)-2-({[(4- bromophenyl)amino]carbonyl}amino)- 3-phenylpro]  FPRL-1 (Homo sapiens (Human), UniProt P25090)  FPRL-1 Ga16-CHO (efficacy)             1.0
1  O=C(Nc1ccc(OC(F)(F)F)cc1)NC(Cc1ccccc1)C(=O)O (stereo not drawn)  FPRL-1 (Homo sapiens (Human), UniProt P25090)  FPRL-1 Ga16-CHO (efficacy)            0.79
2  CC[C@H](C)[C@H](NC(=O)Nc1ccc(Br)cc1)C(=O)O  FPRL-1 (Homo sapiens (Human), UniProt P25090)  FPRL-1 Ga16-CHO (efficacy)            0.89
3  O=C(Nc1ccc(Br)cc1)N[C@H](C(=O)O)c1ccccc1  FPRL-1 (Homo sapiens (Human), UniProt P25090)  FPRL-1 Ga16-CHO (efficacy)            0.94
4  O=C(Nc1ccc(Br)cc1)NC(Cc1c[nH]c2ccccc12)C(=O)O (stereo not drawn)  FPRL-1 (Homo sapiens (Human), UniProt P25090)  FPRL-1 Ga16-CHO (efficacy)            0.89
5  O=C(Nc1ccc(Cl)c(Cl)c1)N[C@@H](Cc1ccccc1)C(=O)O  FPRL-1 (Homo sapiens (Human), UniProt P25090)  FPRL-1 Ga16-CHO (efficacy)            0.57
6  O=C(Nc1ccc(Br)cc1)N[C@H](Cc1ccccc1)C(=O)O [(2R)-2-({[(4- bromophenyl)amino]carbonyl}amino)- 3-phenylpro]  FPRL-1 (Homo sapiens (Human), UniProt P25090)  FPRL-1 Ga16-CHO (efficacy)            0.99
7    CC(C)[C@H](NC(=O)Nc1ccc(Br)cc1F)C(=O)O  FPRL-1 (Homo sapiens (Human), UniProt P25090)  FPRL-1 Ga16-CHO (efficacy)            0.91
8  COc1ccc(NC(=O)NC(Cc2ccccc2)C(=O)O)cc1OC (stereo not drawn)  FPRL-1 (Homo sapiens (Human), UniProt P25090)  FPRL-1 Ga16-CHO (efficacy)            0.72
